experiment: Clearance after i.v. dosing at 1 mg/kg; format: ADME, organism-based; parameters: dose 1 mg/kg, route intravenous; settings: rat, in vivo, iv
readoutType: clearance (mL/min/kg)
Quick reminder: number only, in mL/min/kg, skip the unit.

Query :: Query: clearance; subject: CSc1nccc(Nc2cc(NC(=O)c3cc(F)cc(N4CCOCC4)c3)ccc2C)n1
Result :: 25

====

biological target: UniProt:P00533
Sequence (P00533 whole entry): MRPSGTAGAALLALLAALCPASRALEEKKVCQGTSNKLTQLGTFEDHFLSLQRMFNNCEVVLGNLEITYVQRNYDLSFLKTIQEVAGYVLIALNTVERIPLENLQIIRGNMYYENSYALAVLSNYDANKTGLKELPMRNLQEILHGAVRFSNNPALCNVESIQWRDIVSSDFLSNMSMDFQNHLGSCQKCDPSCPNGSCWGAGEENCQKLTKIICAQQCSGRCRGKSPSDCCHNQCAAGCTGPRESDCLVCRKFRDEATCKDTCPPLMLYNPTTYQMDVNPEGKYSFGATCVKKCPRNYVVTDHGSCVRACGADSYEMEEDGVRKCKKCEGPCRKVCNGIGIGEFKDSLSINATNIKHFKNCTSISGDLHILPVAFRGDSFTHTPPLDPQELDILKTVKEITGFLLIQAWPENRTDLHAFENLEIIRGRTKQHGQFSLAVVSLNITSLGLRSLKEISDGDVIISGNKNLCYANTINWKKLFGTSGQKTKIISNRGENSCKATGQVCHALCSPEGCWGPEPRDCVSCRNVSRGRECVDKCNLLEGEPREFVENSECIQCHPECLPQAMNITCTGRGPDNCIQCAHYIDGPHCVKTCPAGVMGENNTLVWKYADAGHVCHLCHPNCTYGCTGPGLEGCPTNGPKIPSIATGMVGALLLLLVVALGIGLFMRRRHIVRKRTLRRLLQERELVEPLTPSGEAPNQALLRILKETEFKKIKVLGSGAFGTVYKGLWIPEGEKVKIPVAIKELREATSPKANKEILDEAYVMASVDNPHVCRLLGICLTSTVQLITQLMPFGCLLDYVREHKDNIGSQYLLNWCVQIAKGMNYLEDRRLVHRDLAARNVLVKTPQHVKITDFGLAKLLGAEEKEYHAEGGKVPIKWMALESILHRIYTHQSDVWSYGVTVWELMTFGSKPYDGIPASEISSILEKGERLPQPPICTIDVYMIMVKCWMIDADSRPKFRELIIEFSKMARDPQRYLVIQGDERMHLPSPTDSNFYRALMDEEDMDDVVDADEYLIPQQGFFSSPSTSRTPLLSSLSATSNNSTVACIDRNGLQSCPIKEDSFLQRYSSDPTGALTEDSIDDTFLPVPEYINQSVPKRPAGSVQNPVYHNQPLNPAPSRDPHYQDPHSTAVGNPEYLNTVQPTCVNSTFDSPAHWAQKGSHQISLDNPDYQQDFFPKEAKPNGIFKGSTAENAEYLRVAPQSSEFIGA
Reported IC50 by item:
Please respond with the number in µM and leave the unit unwritten.

COc1cc2ncnc(Nc3ccc(Cl)c(NC(=O)c4cccc(N(C)C)c4)c3)c2cc1OC 1
COc1cc2ncnc(Nc3ccc(Cl)c(NC(=O)c4ccccc4)c3)c2cc1OC 2.2
COc1cc2ncnc(Nc3cc(NC(=O)c4ccccc4)ccc3Cl)c2cc1OC 11
COc1cc2ncnc(Nc3cccc(NC(=O)c4ccccc4)c3F)c2cc1OC 2.8
COc1cc2ncnc(Nc3cc(NC(=O)c4cccc(N(C)C)c4)ccc3Cl)c2cc1OC 29
COc1cc2ncnc(Nc3cc(NC(=O)c4ccccc4)c(F)cc3F)c2cc1OC 0.49

Query :: Which measured IC50 belongs to COc1cc2ncnc(Nc3ccc(C)c(NC(=O)c4ccccc4)c3)c2cc1OC , tested on UniProt:P00533?
Result :: 3.2

Query :: Form field: IC50 recorded for COc1cc2ncnc(Nc3cccc(NC(=O)c4ccccc4)c3)c2cc1OC with UniProt:P00533 (enter value)
Result :: 5.6

Origin of values: ChEMBL document CHEMBL1138000
